Target: VAV1 (Homo sapiens, UniProt P15498+Q96SW2)
Construct: A heterozygous VAV1 C-terminal HiBiT knock-in pool was generated at Monte Rosa Therapeutics from a clonal Jurkat cell; endogenous in cells; host or cells: Jurkat clone stably expressing LgBiT, homozygous GSPT1-G575N; heterozygous VAV1-HiBiT knock-in pool
Experiment: VAV1 degradation activity, VAV1-HiBiT knock-in Jurkat luminescence assay (Example A, Table 1)
Assay type: cell-based
Settings: Jurkat, VAV1-HiBiT knock-in Jurkat cells, luminescence read at 6 and 24 hours; read-out: VAV1 Dmax %
Method: Cells were plated at 10,000 cells per well using Multiflo (BioTek) or Multi Drop Combi (Thermo Fisher) in 384-well white solid bottom plates (Corning, 3570BC) in 25 ul volume in RPMI 1640 media (Thermo Fischer, 22400105) containing 10% FBS (Corning, 35-075-CV), 1% Penicillin/Streptomycin (ThermoFisher Scientific, 15140-122), and 1% Endurazine (Nano-Glo Endurazine Live Cell Substrate (Promega, N2571)). Cells were incubated for ˜16 hours at 37° C., 5% CO2. […]
Dmax for assorted compounds
Give just the number in %; leave the unit off.

Compound	Value unit	Test value
O=C1CCC(c2cccc(-c3ccc(-n4cccc(CC(F)(F)F)c4=O)cc3)c2Cl)C(=O)N1 (stereo not shown)	%	98.5
CC1(C)CN(c2ccc(-c3cccc(C4CCC(=O)NC4=O)c3Cl)cc2)C(=O)CO1 (stereo not shown)	%	92.7
O=C1CCC(c2cccc(-c3cnc(-n4ccccc4=O)nc3)c2Cl)C(=O)N1 (stereo not shown)	%	35.3
O=C1CCC(c2cccc(-c3ccc(N4CCN(CC(F)(F)F)CC4=O)cc3)c2Cl)C(=O)N1 (stereo not shown)	%	96
Nc1ccc(-c2cccc(C3CCC(=O)NC3=O)c2Cl)cc1OC(F)F (stereo not shown)	%	64.6
Cn1ccc(COc2ccc(-c3ccc(F)c(C4CCC(=O)NC4=O)c3Cl)cc2)n1 (stereo not shown)	%	65.3
O=C1CCC(c2cccc(-c3cccc(COC4CCOC4)c3)c2Cl)C(=O)N1 (stereo not shown)	%	21.5
O=C1CCC(c2cccc(-c3ccc(Cc4ccccn4)cc3)c2Cl)C(=O)N1 (stereo not shown)	%	98
O=C1CCC(c2cccc(-c3ccc(N4CCC4=O)cc3)c2Cl)C(=O)N1 (stereo not shown)	%	44.7
O=C1CCC(c2cccc(-c3ccc(Cc4cncnc4)cc3)c2Cl)C(=O)N1 (stereo not shown)	%	95.8

## Input Hi! What's the reported Dmax for O=C1CCC(c2cccc(-c3ccc(-c4cccn(CC(F)(F)F)c4=O)cc3)c2Cl)C(=O)N1 (stereo not shown) on VAV1 (Homo sapiens, UniProt P15498+Q96SW2)?
## Output 98.6

## Input Ok, now O=C1CCC(c2cccc(-c3ccc(CN4C(=O)CC45CCC5)cc3)c2Cl)C(=O)N1 (stereo not shown)
## Output 98.5

## Input Ok, now O=C1CCC(c2cccc(-c3ccc(N4CCCCC4C(F)(F)F)cc3)c2Cl)C(=O)N1 (stereo not shown)
## Output 84

###

Dmax for assorted compounds
molecular target: VAV1 (Homo sapiens, UniProt P15498+Q96SW2); construct: A heterozygous VAV1 C-terminal HiBiT knock-in pool was generated at Monte Rosa Therapeutics from a clonal Jurkat cell; endogenous in cells; host or cells: Jurkat clone stably expressing LgBiT, homozygous GSPT1-G575N; heterozygous VAV1-HiBiT knock-in pool; test: VAV1 degradation activity, VAV1-HiBiT knock-in Jurkat luminescence assay (Example A, Table 1); format: cell-based; settings: Jurkat, VAV1-HiBiT knock-in Jurkat cells, luminescence read at 6 and 24 hours; read-out: VAV1 Dmax %, class

Compound	Target or system	Measurement type	Test value
CCNc1ccc(-c2cccc(C3CCC(=O)NC3=O)c2Cl)cc1 (centres unmarked) [Compound 115]	VAV1 (Homo sapiens, UniProt P15498+Q96SW2)	Dmax	60 to 90%

## Input Which measured Dmax value corresponds to Cn1ccc(=O)n1Cc1ccc(-c2cccc(C3CCC(=O)NC3=O)c2Cl)cc1 (centres unmarked) [Compound 158] ?
## Output 60 to 90%

## Input Ok, now Cc1cc(OCc2ccn(C)n2)ccc1-c1ccc(Cl)c(C2CCC(=O)NC2=O)c1 (centres unmarked) [Compound 152]
## Output < 60%

## Input Ok, now Cn1ncc2c1CCN(c1ccc(-c3cccc(C4CCC(=O)NC4=O)c3Cl)cc1)C2=O (centres unmarked) [Compound 313]
## Output > 90%

## Input Ok, now C[C@@H]1CCC(=O)N1c1ccc(-c2cccc(C3CCC(=O)NC3=O)c2Cl)cc1 (some centres unmarked) [Compound 303]
## Output > 90%

## Input Ok, now O=C1CCC(c2cccc(-c3ccc(N4C(=O)CCC45CCC5)cc3)c2Cl)C(=O)N1 (centres unmarked) [Compound 457]
## Output > 90%

## Input Ok, now COc1cc(OC(F)F)ccc1-c1cccc(C2CCC(=O)NC2=O)c1Cl (centres unmarked) [Compound 137]
## Output 60 to 90%

## Input Ok, now O=C1CCC(c2cccc(-c3ccc(N4C(=O)OCCC45CC5)nc3)c2Cl)C(=O)N1 (centres unmarked) [Compound 351]
## Output 60 to 90%

## Input Ok, now O=C1CCC(c2cccc(-c3ccc(Cn4ccc(C(F)(F)F)cc4=O)cc3)c2Cl)C(=O)N1 (centres unmarked) [Compound 171]
## Output > 90%

## Input Ok, now N#Cc1ccc(-c2cccc(C3CCC(=O)NC3=O)c2Cl)cc1 (centres unmarked) [Compound 142]
## Output 60 to 90%

## Input Ok, now O=C1CCC(c2cccc(-c3ccc(N4C(=O)CCCC45CC5)c(F)c3)c2Cl)C(=O)N1 (centres unmarked) [Compound 350]
## Output > 90%
